TARGET_OR_SYSTEM: human adenosine A3 receptors (Homo sapiens)
Construct: expressed in transfected cells; host or cells: CHO-K1
Sequence (P0DMS8 whole entry): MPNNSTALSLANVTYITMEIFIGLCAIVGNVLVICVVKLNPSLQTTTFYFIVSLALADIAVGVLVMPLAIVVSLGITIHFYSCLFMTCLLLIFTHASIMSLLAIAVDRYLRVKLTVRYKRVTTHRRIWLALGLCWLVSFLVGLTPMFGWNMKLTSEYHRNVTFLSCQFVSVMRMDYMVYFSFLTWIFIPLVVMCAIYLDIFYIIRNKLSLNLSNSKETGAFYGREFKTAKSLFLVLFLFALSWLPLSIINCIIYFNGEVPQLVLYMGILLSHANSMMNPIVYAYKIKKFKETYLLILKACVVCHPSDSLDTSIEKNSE
PROTOCOL_DETAILS: Adenosine receptor binding: binding affinities at hA3 receptors ([125I]-AB MECA displacement)
ASSAY_SETUP: Table 1; [125I]-AB MECA displacement, CHO-K1 membranes; read-out: Binding Affinity hA3-Ki
pKi: −log10 of the molar value.
MEASUREMENT_LABEL: pKi

>  <COMPOUND>
Cc1ccc(-c2nc(N)nc3c2nnn3Cc2cccc(C3(O)CCC3)n2)o1 [Example 6]

>  <TARGET_OR_SYSTEM>
human adenosine A3 receptors (Homo sapiens)

>  <MEASUREMENT_LABEL>
pKi

>  <MEASURED_NUMBER>
5.82

$$$$

1: Cc1ccc(-c2nc(N)nc3c2nnn3Cc2cccc(C3(O)CCCCC3)n2)o1 [Example 4]
2: Cc1ccc(-c2nc(N)nc3c2nnn3Cc2cccc(C(C)(C)O)n2)o1 [Example 2]
3: COCc1cccc(Cn2nnc3c(-c4ccccc4)nc(N)nc32)n1 [Example 12]
Enquiry: Hey, can you sort those compounds up there by pKi, smallest first? Labels, requested order.
Return: 3, 1, 2

A: Cc1ccc(-c2nc(N)nc3c2nnn3Cc2cccc(COCC3CCCO3)n2)o1 (stereo not drawn) [Example 33]
B: Cc1csc(-c2nc(N)nc3c2nnn3Cc2cccc(C3(O)CCCC3)n2)n1 [Example 27]
C: Cc1ccc(-c2nc(N)nc3c2nnn3Cc2cccc(C3(O)CCCC3)n2)o1 [Example 3]
Enquiry: Hey, can you sort those compounds up there by pKi, smallest first? Labels, requested order.
Return: B, A, C

a: Cc1ccc(-c2nc(N)nc3c2nnn3Cc2cccc(COCC(F)(F)F)n2)o1 [Example 37]
b: COC(C)(C)OCc1cccc(Cn2nnc3c(-c4ccc(C)o4)nc(N)nc32)n1 [Example 36]
Enquiry: Please choose the item with the lower pKi value from this pair: a and b Answer by stating the label of the chosen item.
Return: a
(a: 5.60, b: 6.03)

* * *

TARGET_OR_SYSTEM: human adenosine A1 receptors (Homo sapiens, UniProt P30542)
Construct: expressed in transfected cells; host or cells: CHO-K1
Sequence (P30542 whole entry): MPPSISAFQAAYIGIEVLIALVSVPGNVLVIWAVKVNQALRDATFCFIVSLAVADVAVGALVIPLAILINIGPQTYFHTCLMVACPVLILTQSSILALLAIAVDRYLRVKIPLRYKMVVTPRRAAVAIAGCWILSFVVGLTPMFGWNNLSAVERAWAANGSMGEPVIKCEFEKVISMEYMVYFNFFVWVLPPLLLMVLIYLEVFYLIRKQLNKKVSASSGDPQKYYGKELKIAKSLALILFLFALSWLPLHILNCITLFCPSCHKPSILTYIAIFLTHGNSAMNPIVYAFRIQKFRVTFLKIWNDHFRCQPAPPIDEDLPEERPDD
PROTOCOL_DETAILS: Adenosine receptor binding: binding affinities at hA1 receptors ([3H]DPCPX displacement)
ASSAY_SETUP: Table 1; [3H]DPCPX displacement, CHO-K1 membranes; read-out: Binding Affinity hA1-Ki
MEASUREMENT_LABEL: Ki (nM)

Record excerpt, results attached:
>  <COMPOUND>
Cc1csc(-c2nc(N)nc3c2nnn3Cc2cccc(C3(O)CCCC3)n2)n1

>  <Ki (nM)>
1730

$$$$
>  <COMPOUND>
COc1cccc(-c2nc(N)nc3c2nnn3Cc2cccc(C3(O)CCC3)n2)c1

>  <Ki (nM)>
386

$$$$
>  <COMPOUND>
Nc1nc(-c2ccccc2)c2nnn(Cc3cccc(CO[C@H]4CCOC4)n3)c2n1

>  <Ki (nM)>
731

$$$$
>  <COMPOUND>
Cc1ccc(-c2nc(N)nc3c2nnn3Cc2cccc(C3(O)CCC3)n2)o1

>  <Ki (nM)>
354

$$$$
>  <COMPOUND>
N#Cc1cccc(-c2nc(N)nc3c2nnn3Cc2cccc(C3(O)CCCC3)n2)c1

>  <Ki (nM)>
2390

$$$$
>  <COMPOUND>
Nc1nc(-c2nccs2)c2nnn(Cc3cccc(CO[C@H]4CCOC4)n3)c2n1

>  <Ki (nM)>
2090

$$$$
>  <COMPOUND>
COCc1cccc(Cn2nnc3c(-c4nc(C)cs4)nc(N)nc32)n1

>  <Ki (nM)>
799

$$$$
>  <COMPOUND>
COCc1cccc(Cn2nnc3c(-c4ccccc4)nc(N)nc32)n1

>  <Ki (nM)>
270

$$$$

a: Nc1nc(-c2ccccc2)c2nnn(Cc3cccc(C4(O)CCCC4)n3)c2n1
b: Cc1ccc(-c2nc(N)nc3c2nnn3Cc2cccc(COCC3CCCO3)n2)o1 (stereo not drawn)
c: Cc1ccc(-c2nc(N)nc3c2nnn3Cc2cccc(COCC3CCOC3)n2)o1 (racemic)
d: N#Cc1cccc(-c2nc(N)nc3c2nnn3Cc2cccc(C3(O)CCC3)n2)c1
Enquiry: # rank_down: sort by Ki, max first Labels, requested order.
Return: d, a, b, c

A: Cc1ccc(-c2nc(N)nc3c2nnn3Cc2cccc(C(C)(C)O)n2)o1
B: Cc1ccc(-c2nc(N)nc3c2nnn3Cc2cccc(C3(O)CCOCC3)n2)o1
Enquiry: Given the listed records, identify the one among A and B with higher Ki. Answer by stating the label of the chosen item.
Return: B

1: Nc1nc(-c2ccccc2)c2nnn(Cc3cccc(C4(O)CCC4)n3)c2n1
2: COc1cccc(-c2nc(N)nc3c2nnn3Cc2cccc(C(C)(C)O)n2)c1
Enquiry: Given the listed records, identify the one among 1 and 2 with higher Ki. Answer by stating the label of the chosen item.
Return: 2
(2: 498 nM, 1: 320 nM)
